The values you see were collected from paper PMC4234442.

study target: NPFF2-R (Homo sapiens, UniProt Q9Y5X5)
Sequence (Q9Y5X5 whole entry): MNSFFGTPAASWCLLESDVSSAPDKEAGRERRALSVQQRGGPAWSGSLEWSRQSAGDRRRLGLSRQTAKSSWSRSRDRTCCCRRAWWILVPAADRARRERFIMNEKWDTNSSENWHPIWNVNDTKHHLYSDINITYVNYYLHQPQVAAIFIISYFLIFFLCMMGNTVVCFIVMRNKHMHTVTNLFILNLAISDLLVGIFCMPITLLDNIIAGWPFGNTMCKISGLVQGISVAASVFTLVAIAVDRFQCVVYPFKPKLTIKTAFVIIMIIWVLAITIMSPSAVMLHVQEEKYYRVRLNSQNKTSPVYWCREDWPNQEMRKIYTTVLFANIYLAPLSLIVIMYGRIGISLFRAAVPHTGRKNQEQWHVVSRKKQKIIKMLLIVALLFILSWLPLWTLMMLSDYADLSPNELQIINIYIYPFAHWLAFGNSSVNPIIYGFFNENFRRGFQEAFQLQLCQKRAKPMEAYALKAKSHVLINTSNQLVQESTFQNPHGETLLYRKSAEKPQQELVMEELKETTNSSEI
Type: binding
reported metric: fold gain of affinity at NPFF2-R compared with lead 21 (fold)

| compound | study target | recorded number |
| --- | --- | --- |
| N=C(N)NCC(=O)NCC1(Cc2cccc3ccccc23)CCN(Cc2ccccc2)CC1 [53a] | NPFF2-R (Homo sapiens, UniProt Q9Y5X5) | 14 |
| N=C(N)NCC(=O)NCC1(Cc2ccccc2)CCN(Cc2ccccc2)CC1 | NPFF2-R (Homo sapiens, UniProt Q9Y5X5) | 5 |

----------
study target: NPFF1-R (Homo sapiens)
Sequence (Q9GZQ6 whole entry): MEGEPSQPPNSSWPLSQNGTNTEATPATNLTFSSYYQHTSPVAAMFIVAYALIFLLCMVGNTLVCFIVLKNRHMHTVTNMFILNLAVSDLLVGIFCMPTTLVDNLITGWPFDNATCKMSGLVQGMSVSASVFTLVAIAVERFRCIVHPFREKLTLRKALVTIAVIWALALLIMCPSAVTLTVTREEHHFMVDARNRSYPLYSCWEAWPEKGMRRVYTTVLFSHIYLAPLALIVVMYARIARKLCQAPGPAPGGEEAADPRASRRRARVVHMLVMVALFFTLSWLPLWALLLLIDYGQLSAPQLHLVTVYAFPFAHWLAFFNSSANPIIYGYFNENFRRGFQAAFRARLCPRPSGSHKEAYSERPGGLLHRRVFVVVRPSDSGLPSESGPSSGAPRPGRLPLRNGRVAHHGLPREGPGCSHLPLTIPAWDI
Type: binding

| compound | study target | ratio, preference for NPFF1 |
| --- | --- | --- |
| COc1cccc(NC2(CNC(=O)CNC(=N)N)CCN(Cc3ccccc3)CC2)c1 [30c] | NPFF1-R (Homo sapiens) | 4.4-fold (NPFF1) |
| N=C(N)NCC(=O)NCC1(Cc2ccc(-c3ccccc3)cc2)CCN(Cc2ccccc2)CC1 [53d] | NPFF1-R (Homo sapiens) | 3-fold (NPFF1) |
| N=C(N)NCC(=O)NCC1(Nc2cccc3ccccc23)CCN(Cc2ccccc2)CC1 [30a] | NPFF1-R (Homo sapiens) | 3.3-fold (NPFF1) |
| N=C(N)NCC(=O)NCC1(CCc2ccccc2)CCN(Cc2ccccc2)CC1 [compound 43] | NPFF1-R (Homo sapiens) | 3-fold (NPFF1) |
| COc1cc(NC2(CNC(=O)CNC(=N)N)CCN(Cc3ccccc3)CC2)cc(OC)c1 [30b] | NPFF1-R (Homo sapiens) | 8.7-fold (NPFF1) |
| N=C(N)NCC(=O)NCC1(c2ccccc2)CCN(Cc2ccccc2)CC1 [compound 34] | NPFF1-R (Homo sapiens) | 6.9-fold (NPFF1) |
| N=C(N)NCC(=O)NCC1(Nc2ccc(Cl)c(Cl)c2)CCN(Cc2ccccc2)CC1 [30d] | NPFF1-R (Homo sapiens) | 2.1-fold (NPFF1) |

----------
Each entry below carries its recorded fold gain of affinity at NPFF2-R compared with lead 21.
study target: NPFF2-R (Homo sapiens, UniProt Q9Y5X5)
Assay type: binding
reported metric: fold gain of affinity at NPFF2-R compared with lead 21

| compound | result |
| --- | --- |
| N=C(N)NCC(=O)NCC1(Nc2ccccc2)CCN(CC2CCCCC2)CC1 [49b] | 1.2–3.1 fold |
| N=C(N)NCC(=O)NCC1(Nc2ccccc2)CCN(Cc2cccc3ccccc23)CC1 [49d] | 1.2–3.1 fold |
| N=C(N)NCC(=O)NCC1(Nc2ccccc2)CCN(CCc2ccccc2)CC1 [49c] | 1.2–3.1 fold |
